# credit: patent US20260216242A1

# Target System: ALPP (Homo sapiens, UniProt P05187)
# Sequence (P05187 with tags, fused parts or gaps): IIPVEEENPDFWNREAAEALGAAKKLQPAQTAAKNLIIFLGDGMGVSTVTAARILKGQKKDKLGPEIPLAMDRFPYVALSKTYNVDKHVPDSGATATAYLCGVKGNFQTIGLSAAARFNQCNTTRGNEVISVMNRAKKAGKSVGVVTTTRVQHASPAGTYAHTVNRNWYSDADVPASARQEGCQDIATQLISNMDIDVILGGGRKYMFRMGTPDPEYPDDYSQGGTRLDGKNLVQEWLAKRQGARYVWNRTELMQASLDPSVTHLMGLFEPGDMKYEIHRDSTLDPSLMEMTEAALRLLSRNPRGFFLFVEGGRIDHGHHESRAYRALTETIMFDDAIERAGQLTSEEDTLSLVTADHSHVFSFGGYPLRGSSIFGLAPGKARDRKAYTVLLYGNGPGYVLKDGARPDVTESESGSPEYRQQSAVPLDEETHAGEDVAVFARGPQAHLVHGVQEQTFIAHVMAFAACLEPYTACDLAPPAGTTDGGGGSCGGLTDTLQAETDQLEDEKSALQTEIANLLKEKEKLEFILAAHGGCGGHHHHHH
# Protocol Description: BLI binding kinetics, human ALPP immobilised on AR2G sensors (KD / KD apparent)
# Measurement Parameters: VHH domains
Measured hALPP Kd of individual entries

Prompt: Would you kindly share the measured hALPP Kd for F09: ALPP targeting VHH domain, SEQ ID NO: 36 (protein) VHH: QVQLVESGGGSVQAGGSLRLSCAASGPSLSNYAMGWFRQAPGKEREFVAGISWGGGRTSCTDSVKGRFTISRDNAKNTVYLQMNNLKPEDTGVYYCAGRYGRGRNVEYEYDYWGQGTQVTVSS ?
Response: <1e-07 s⁻¹

Prompt: Would you kindly share the measured hALPP Kd for A12: ALPP targeting VHH domain, SEQ ID NO: 19 (protein) VHH: QVHLVECGGGSVQAGGFLRLSCAASGPSLSNYAMGRFRQAPGKEREFVAGISWGGGRTSYTDSVKGRFTISRDNAKNTVYLQMNNLEPEDTGVYYCAGRYGRGRNVEYEYDYWGQGTKVTVSS ?
Response: <1e-07 s⁻¹

Prompt: Would you kindly share the measured hALPP Kd for C05: ALPP targeting VHH domain, SEQ ID NO: 23 (protein) VHH: QVQLVESGGGLVQAGGSLRLSCAASRRSFSEYAMGWFRQAPGKEREFVAAIGWSGVIEYADSVKGRFTISRDNAKDTVYLQMNSLKPEDTAVYYCAAGLGIRVVSQTPAYWGQGTQVTVSS ?
Response: <1e-07 s⁻¹
